Test system: MS2 coat protein
Experiment: apparent KD of MS2 coat protein; higher = weaker reporter binding
Conditions: Eterna round: R107; input ligand: tryptophan 2.4 mM
Outcome label depends on apparent KD of MS2 coat protein relative to 40 nM: at/above gives criterion met, below gives criterion not met.

sequenceData: GGACUAACCAGAAGGAGCGACGCAAGCAGAAACUGCAAUCCUCCGCACGAGGAUCACCCGUGUCAGGUAGGUCGCUGGUUAGUCG [ArgBX 28]
className: criterion not met

sequenceData: GGGCAAGAGGGAAGGAGCGUCAGCUGAGUCACAUGAGGAUCACCCAUGUCGCACAUAGUGUGACAGGUAGGUCGCCCUCUGCCCU [Zaistiqu]
className: criterion met

sequenceData: AGCCGUACGUACGGAAACGUACGUACGGCACGAGGACCGGUACGGCCGCCACUCGCCCACAUGAGGAUCACCCAUGUAGUGGGUG [The One Line]
className: criterion met

sequenceData: GUAUCUAUGUGAAAUAGAUAUAUAACUGAAGGAGCGUCAUUAAGGACAGGUAGGUCGCAGAGCACCUGAGGAUCACCCAGGUAGG [Arg A SS s1]
className: criterion not met

sequenceData: GGGUACAUCGCGGCCGCCACUUGUGUAAAUACAUGAGGAUCACCCAUGUCGAUGGAGACAUCGGCAAGGACCGGGUGAUGUACCG
className: criterion not met

* * *

Tested on: K4 kissing-loop RNA reporter;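 further: bound reporter read as fluorescence of individual clusters on recovered sequencing chips by microscopy, with normalized cluster intensities fitted with a binding model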
Test: apparent KD of K4 kissing-loop reporter; higher = weaker reporter binding
Settings: Eterna round: R107; input ligand: FMN 200 uM
assayMetric: apparent KD of K4 kissing-loop reporter (nM)

sequenceData: UGACUGGACUGAAGGAGCGAGGACGGUCAUAGACCGAAUUCAGUGAUGUUGAAAAUAAAACCUCAGGUAGGUCGCAGUCUAGUCU [ArgBS 3 #SwitchBubble #StaticStem]
unitOfMeasure: nM
experimentalValue: 228

sequenceData: GCACUUCUCAGUGAUGUUGAGUAAUCGGAAGGAGCGCGUGAAAACGCAGGUAGGUCGCCGAUACAUGAAGUAUCUUCGUGUGUGC [Arginine A K4 25]
unitOfMeasure: nM
experimentalValue: 306

sequenceData: GUGCAAAGCACCGGCACGAGCAGCCUAAAGGAGGAUAUGACGAAAGUCAGAAGGUCUAGUGAUGUUAGGCCUUGCUUGAGUCGAA [Omei KL FMN A Exc B v3]
unitOfMeasure: nM
experimentalValue: 288

* * *

Tested on: MS2 coat protein
Assay: apparent KD of MS2 coat protein; designed switch direction (-1 OFF switch, 1 ON switch): -1; higher = weaker reporter binding
Details: Eterna round: R95; input ligand: microRNA oligo, concentration not stated
# apparent KD of MS2 coat protein binned as zone 1 (below 30 nM), zone 2 (30 nM to below 200 nM), zone 3 (200 nM or more)

sequenceData: UUUAAAACAUAGGAUAUCGAAAAUAUCAUUUAACGAGAAGGAUGAACAUGAGGAUCACCCAUGUGGUAUCAUGG [Mat - Exclusion 6 - JL Mod - D16] (puzzle: Exclusion 6)
className: zone 3
--
sequenceData: AGUUGGCGAGGAUAUACAUGAGGAUCACCCAUGUGAAUAAGAAUAGUGAGGAAGAAAAGUAGAAGGCGCUGACA [Mat - Exclusion 3 - Mod of Salish D36] (puzzle: Exclusion 3)
className: zone 2
--
sequenceData: GCAAGCGACUAGGCUCGUCUUAUAUUGAAAAGAUUGAAAACAUGAGGAUCACCCAUGUAUGUGGGAAAGUUGAAGUG [JR_SV3TOV2_Sub010] (puzzle: Sensor v3, turn-off variant 2)
className: zone 3
--
sequenceData: AUACCACGAGGAUAUCGUCUAUUUUACAUGAGGAUCACCCAUGUUAUCUUUGUUUUGUUUCGAGAAGGCGUGUUUU [JR_E5_Sub079] (puzzle: Exclusion 5)
className: zone 1
--
sequenceData: CAUGGGUGUGAGCCGCAUUACAUGAGGAUCACCCAUGUCAACAAGCUUUUUGCUUGUCUUACGCGGCGGCACCAAAA [Bimaus] (puzzle: Sensor v3, turn-off variant 1)
className: zone 1
--
sequenceData: CUUCACCCACUAGAGCUCACCCACAAACCUACUCUAGUGACAUGAGGAUCACCCAUGUUUUUUGCCCGUCUUAUCUU [Qugeenerce] (puzzle: Sensor v3, turn-off variant 2)
className: zone 2
--
sequenceData: UUUUUUGUUGUGAGGAUAUCGUAGUUAUUUUGUUACGAGAAGGCACAUGAGGAUCACCCAUGUUUUUUGAUGUU [JR_BMOE4_Sub064] (puzzle: Brourd's mod of Exclusion 4)
className: zone 1
--
sequenceData: GCCAGAGCAGGAUAUUUAUAUUAUCACAUGAGGAUCACCCAUGUCCAGCGAAAGCUGGAGGGAGAAGGGCUCUGGC [Fiskers Ex 5 - 25] (puzzle: Exclusion 5)
className: zone 2
--
sequenceData: CAGUACUGAGGAUAUACAUGAGGAUCACCCAUGUGUCCCAGCUAGGAAACUAGCAAAAGUAGAAGGCAGUACUG [Fiskers Ex 3 828 mod 1] (puzzle: Exclusion 3)
className: zone 1
--
sequenceData: UUUAAUUUUUUUUUUUUACAAGCUUUUUGCUCGUCUUAUACAUGAGGAUCACCCAUGUAAAUGGGAAGUAAAUUAUC [JMF 50] (puzzle: Sensor v3, turn-off variant 2)
className: zone 3

* * *

Catalogue of apparent KD of MS2 coat protein values
Test system: MS2 coat protein
Test: apparent KD of MS2 coat protein; designed switch direction (-1 OFF switch, 1 ON switch): -1; higher = weaker reporter binding
Details: input ligand: FMN 200 uM
assayMetric: apparent KD of MS2 coat protein (nM)

sequenceData: AGGGCACAUGAGGAUCACCCAUGUGAGGAUAUCCCGGUACUAUCGAUGUAGUAAUCGUGGAGAAGGCACACGAC [EX1 C.21] (Eterna round: R97, puzzle: Exclusion 1)
experimentalValue: 90.3

sequenceData: GCAAGCUUAAUCAGUAUGAACAUGAGGAUCACCCAUGUAUAAGGUAAUUCUUUUGGGUUUUUUAUUGCUCGUCUUAU [JR_STOV1_Sub027] (Eterna round: R97, puzzle: Sensor, turn-off variant 1)
experimentalValue: 245

sequenceData: GAUGUUCGAGUUAGGAUAUGAAUCCAUACCGGACAUCAGAAGGAACUUGAGGAUCACCCAAGUGGGAAAGAAAU [Orzavera] (Eterna round: R97, puzzle: Brourd's mod of Exclusion 4)
experimentalValue: 26.3

sequenceData: GGCCAGAUAGGAUAUACUUGAGGAUCACCCAAGUAAAGGAGCAAGCUCCGAUCCUUUGGUAGAAGGAUCGGCCA [Diqulees] (Eterna round: R97, puzzle: Exclusion 3)
experimentalValue: 92.7

sequenceData: AUGUGCACGCUGCGGUCCUACAUGAGGAUCACCCAUGUGGUCUGGUGGCGUGGGUCACCGGACUUGGCUCGUCUUGA [salish99_S_TOV1_R5_055] (Eterna round: R97, puzzle: Sensor, turn-off variant 1)
experimentalValue: 56

* * *

Catalogue of apparent KD of MS2 coat protein values
System: MS2 coat protein
Assay: apparent KD of MS2 coat protein; designed switch direction (-1 OFF switch, 1 ON switch): -1; higher = weaker reporter binding
Details: input ligand: FMN 200 uM

sequenceData: GCACUGACAGGAUAUACAUGAGGAUCACCCAUGUGACCCUUGGAGUACUCGCGUACUCGUAGAAGGGUCUGUGC [Omei Ex3 Model Bachelor's Dilema v37] (Eterna round: R97, puzzle: Exclusion 3)
unitOfMeasure: nM
apparent KD of MS2 coat protein: 95.8
//
sequenceData: GCUGGCUGAGGAUAUCUAUCCAUGAACAUGAGGAUCACCCAUGUAAACGUGGAGUGAGAUAGAGAAGGCGGGCAGA [EX5 A.13] (Eterna round: R97, puzzle: Exclusion 5)
unitOfMeasure: nM
apparent KD of MS2 coat protein: 13.6
//
sequenceData: ACAAGCUUUUGCUCGUCUUACAUGAGGAUCACCCAUGUCGGGAGCAUGCAUACGUCCAGCAUCUGGACCGUAGCAGA [-25.7, -49.8 kcal, 25% A] (Eterna round: R97, puzzle: Sensor, turn-off variant 1)
unitOfMeasure: nM
apparent KD of MS2 coat protein: 16.3
//
sequenceData: ACACAGCGAGGAUAUACAUGAGGAUCACCCAUGUGGUGGCAGUUACGGUAGGACUAGUGUAGAAGGUGCCGUGG [EX3 #28] (Eterna round: R97, puzzle: Exclusion 3)
unitOfMeasure: nM
apparent KD of MS2 coat protein: 600
//
sequenceData: GUAGAGUGAGGAUAUACGAGAUCGAAAGAUCGGCGAUCCAUACAUGAGGAUCACCCAUGUAGAAGGCACUCUAC [Eli x2 4.002] (Eterna round: R97, puzzle: Exclusion 2)
unitOfMeasure: nM
apparent KD of MS2 coat protein: 521

* * *

Catalogue of apparent KD of MS2 coat protein values
Test system: MS2 coat protein
Assay: apparent KD of MS2 coat protein; higher = weaker reporter binding
Details: Eterna round: R107; input ligand: arginine 13.2 mM

sequenceData: UGUAUGUGAUUUGAUACCAGACCAGCUGGUGGUACAUGAGCAUCAGCCAUGUAGGUUUGGGUCCCUUGGCAGCAAAUCGCAUACU [SS Theo B #24 Ms2]
apparent KD of MS2 coat protein (nM): 20.7
--
sequenceData: ACAUGAGGAUCCGAUACCAGCCACAUGAGGAUCACCCAUGUAGUACAUGAGGAUCACCCAGGCCCUUGGCAGCGGACAUGAGGAU [Exclusion - Theophylline B]
apparent KD of MS2 coat protein (nM): 95.9
--
sequenceData: GAUGAUAUUGCAGAUACCAGACACAUGAGGAUCACCCAUGUCGUUGGGUCGCUGGGUCGUGUCCCUUGGCAGCUGCGAUAUCAUC [#04 Exclusion-TheophyllineB]
apparent KD of MS2 coat protein (nM): 28
--
sequenceData: GAGUUCCUGAGAGAUACCAGUGAAGCCACAUGAGGAUCACCCAUGUCCCUCACUCCGGCCCACCCUUGGCAGCUCGAAAGAUGGA [Exclusion Theophylline B GF 21]
apparent KD of MS2 coat protein (nM): 83.7
--
sequenceData: UGUAACAUGAGGAUCACCCAUGUGAGUGAUACCAGACUAGUAUUAGUCCCUUGGCAGCACGCUGGGCGAGUGUAUAGUCUAUGCG [Same State - Theophylline A (Freestyle 15)]
apparent KD of MS2 coat protein (nM): 69

These measurements were taken from the supplement of paper PMC9170038.
